Where do the numbers come from? From ChEMBL document CHEMBL6071155.

measured target: Calcium release-activated calcium channel protein 1 (Homo sapiens, UniProt Q96D31, G98S)
Sequence (Q96D31 whole entry G98S): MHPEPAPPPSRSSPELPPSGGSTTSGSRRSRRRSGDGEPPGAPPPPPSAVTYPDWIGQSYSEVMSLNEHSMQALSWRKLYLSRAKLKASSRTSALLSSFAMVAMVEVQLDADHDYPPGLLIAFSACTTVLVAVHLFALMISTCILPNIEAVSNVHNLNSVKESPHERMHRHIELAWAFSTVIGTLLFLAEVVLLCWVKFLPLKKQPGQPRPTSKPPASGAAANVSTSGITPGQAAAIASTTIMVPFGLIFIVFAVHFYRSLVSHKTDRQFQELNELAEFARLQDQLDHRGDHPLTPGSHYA
measurement description: Inhibition of myc-tagged human orai-1 G98S mutant expressed in HEK293 cells assessed as decrease in inward current by patch clamp electrophysiology technique
measurement name: IC50 (µM)

{"smiles text": "O=C(Nc1ccncc1F)c1nn(CC2CC2)c2ccccc12", "measurement name": "IC50", "value observed": 4.9}

---

Test system: Jurkat T
measurement description: Inhibition of NFAT (unknown origin) activation transfected in human Jurkat T cells expressing firefly luciferase gene at 10 uM preincubated with compound for 30 mins followed by PMA/ionomysin addition and measured after 18 hrs by luminometer relative to control
Type: cell-based
measurement parameters: time 18.5 hrs
# maps each entry to its inhibition
measurement name: inhibition

{"smiles text": "O=C(Nc1ccncc1F)c1nn(CC2CC2)c2c1CCC2", "measurement name": "inhibition", "value observed": "63.6%"}
{"smiles text": "Cc1cnccc1NC(=O)c1nn(CC2CC2)c2c1CCC2", "measurement name": "inhibition", "value observed": "55.5%"}
{"smiles text": "O=C(Nc1ccncc1F)c1nn(CC2CC2)c2c1CCCC2", "measurement name": "inhibition", "value observed": "87.3%"}
{"smiles text": "O=C(Nc1ccncc1F)c1ccn(CC2CC2)n1", "measurement name": "inhibition", "value observed": "60.2%"}
{"smiles text": "O=C(Nc1ccncc1F)c1nn(CC2CCCC2)c2ccccc12", "measurement name": "inhibition", "value observed": "95.4%"}
{"smiles text": "O=C(Nc1ccncc1F)c1nn(CC2CC2)c2c(F)cccc12", "measurement name": "inhibition", "value observed": "48.5%"}
{"smiles text": "O=C(Nc1ccncc1F)c1nn(CC2CCC2)c2c1CCCC2", "measurement name": "inhibition", "value observed": "92.8%"}
{"smiles text": "O=C(Nc1ccncc1F)c1nn(CC2CC2)c2ccc(Br)cc12", "measurement name": "inhibition", "value observed": "58.6%"}
{"smiles text": "Cc1cnccc1NC(=O)c1nn(CC2CCC2)c2ccccc12", "measurement name": "inhibition", "value observed": "92.4%"}
{"smiles text": "O=C(Nc1ccncc1F)c1nn(CC2CC2)c2cc(F)ccc12", "measurement name": "inhibition", "value observed": "96.1%"}
{"smiles text": "Cc1cnccc1NC(=O)c1nn(CC2CCC2)c2c1CCCC2", "measurement name": "inhibition", "value observed": "92.6%"}

---

Test system: Jurkat T
measurement description: Inhibition of NFAT (unknown origin) activation transfected in human Jurkat T cells expressing firefly luciferase gene at 10 uM preincubated with compound for 30 mins followed by PMA/ionomysin addition and measured after 18 hrs by luminometer relative to control
Format: cell-based
measurement parameters: time 18.5 hrs

{"smiles text": "O=C(Nc1ccncc1F)c1nn(CC2CC2)c2ncccc12", "inhibition (%)": 64.6}
{"smiles text": "O=C(Nc1ccncc1F)c1nn(CC2CC2)c2cc(Cl)ccc12", "inhibition (%)": 51.9}
{"smiles text": "Cc1ccc2c(c1)c(C(=O)Nc1ccncc1F)nn2CC1CC1", "inhibition (%)": 81.9}
{"smiles text": "Cc1cnccc1NC(=O)c1nn(CC2CC2)c2c1CCCC2", "inhibition (%)": 88.7}
{"smiles text": "O=C(Nc1c(F)cccc1F)c1nn(CC2CC2)c2c1CCCC2", "inhibition (%)": 53.9}
{"smiles text": "Cc1cnccc1NC(=O)c1ccn(CC2CC2)n1", "inhibition (%)": 61.3}
